pIC50 for assorted molecules
# assaySystem: Recombinant SARS-CoV-2 3CL Protease (Severe acute respiratory syndrome coronavirus 2 (2019-nCoV) (SARS-CoV-2), UniProt P0DTD1)
# assayInfo: biochemical
# Assay type: biochemical
# cond: 50% SARS-CoV-2 3CL protease inhibitory concentration; read-out: IC50
pIC50: −log10 of the molar value.

C[C@](O)(CCc1c(-c2ccc(F)c(Cl)c2)c(=O)n(-c2cncc(C#N)c2)c(=O)n1CC#N)C(F)F (single isomer, unassigned) = > 8.00
N#CCn1c(N2CC3(CCOC3)C2)c(Cc2cc(F)c(F)c(F)c2)c(=O)n(-c2cnc3cccnn23)c1=O = < 7.00

Please examine the following record next.
Sample Cc1cc(-n2c(=O)c(-c3ccc(F)c(Cl)c3)c(N3CC4(C3)CC(F)(F)C4)n(CC#N)c2=O)cc(=O)[nH]1 — what was its pIC50? > 8.00

This collection of values is drawn from patent US20250092056A1.
